- measurement description: Activity at beta-galactosidase in Bacillus subtilis
*1 amine or outer side, *2 acyl side, *3 side chain or, on linkers, in order; H or OH if unused. Where a SMILES comes first, the peptide text is derived from it. [ ]: non-standard residue; d: D form. X1 = CC(C)=CCC/C(C)=C\C[C@@]12c3ccccc3N[C@@H]1N([*:1])C[C@@H]2C(=O)[*:2]
assay readout: EC50 (nM)

CC[C@H](C)[C@H](NC(=O)CN)C(=O)N[C@@H](Cc1ccccc1)C(=O)N1C[C@H](C(=O)O)[C@]2(C/C=C(/C)CCC=C(C)C)c3ccccc3N[C@H]12 ... 130
CC[C@H](C)[C@H](N)C(=O)N[C@@H](Cc1ccccc1)C(=O)N1C[C@H](C(=O)N[C@@H](CCC(=O)O)C(=O)N[C@@H](CCC(N)=O)C(=O)O)[C@]2(C/C=C(/C)CCC=C(C)C)c3ccccc3N[C@H]12 (H-IF[X1]EQ-OH) ... 6
CC[C@H](C)[C@H](NC(=O)CN)C(=O)N[C@@H](Cc1ccccc1)C(=O)N1C[C@H](C(=O)N[C@@H](C)C(=O)N[C@@H](CCC(N)=O)C(=O)O)[C@]2(C/C=C(/C)CCC=C(C)C)c3ccccc3N[C@H]12 (H-GIF[X1]AQ-OH) ... 3
CC[C@H](C)[C@H](NC(=O)CNC(=O)[C@H](C)N)C(=O)N[C@@H](Cc1ccccc1)C(=O)N1C[C@H](C(=O)N[C@@H](CCC(=O)O)C(=O)N[C@@H](CCC(N)=O)C(=O)O)[C@]2(C/C=C(/C)CCC=C(C)C)c3ccccc3N[C@H]12 (H-AGIF[X1]EQ-OH) ... 1

* * *

- measurement description: Activity at beta-galactosidase in Bacillus subtilis
pEC50: −log10 of the molar value. *1 amine or outer side, *2 acyl side, *3 side chain or, on linkers, in order; H or OH if unused. Where a SMILES comes first, the peptide text is derived from it. [ ]: non-standard residue; d: D form. X1 = CC(C)=CCC/C(C)=C\C[C@@]12c3ccccc3N[C@@H]1N([*:1])C[C@@H]2C(=O)[*:2]
assay readout: pEC50

CC(C)=CCC/C(C)=C\C[C@@]12c3ccccc3N[C@@H]1N(C(=O)[C@H](Cc1ccccc1)NC(=O)[C@H](C)NC(=O)CN)C[C@@H]2C(=O)N[C@@H](CCC(=O)O)C(=O)N[C@@H](CCC(N)=O)C(=O)O (H-GAF[X1]EQ-OH) ... 8.00
CC[C@H](C)[C@H](N)C(=O)N[C@@H](Cc1ccccc1)C(=O)N1C[C@H](C(=O)N[C@@H](CCC(=O)O)C(=O)O)[C@]2(C/C=C(/C)CCC=C(C)C)c3ccccc3N[C@H]12 ... 7.70
CC[C@H](C)[C@H](NC(=O)CN)C(=O)N[C@@H](Cc1ccccc1)C(=O)N1C[C@H](C(=O)N[C@@H](CCC(=O)O)C(=O)O)[C@]2(C/C=C(/C)CCC=C(C)C)c3ccccc3N[C@H]12 (H-GIF[X1]E-OH) ... 7.70
CC[C@H](C)[C@H](NC(=O)CN)C(=O)N[C@@H](Cc1ccccc1)C(=O)N1C[C@H](C(=O)N[C@@H](CCC(=O)O)C(=O)N[C@@H](CCC(N)=O)C(=O)O)[C@]2(C/C=C(/C)CCC=C(C)C)c3ccccc3N[C@H]12 (H-GIF[X1]EQ-OH) ... 9.00
CC[C@H](C)[C@H](N)C(=O)N[C@@H](Cc1ccccc1)C(=O)N1C[C@H](C(=O)O)[C@]2(C/C=C(/C)CCC=C(C)C)c3ccccc3N[C@H]12 ... 6.80
CC(C)=CCC/C(C)=C\C[C@@]12c3ccccc3N[C@@H]1N(C(=O)[C@@H](N)Cc1ccccc1)C[C@@H]2C(=O)N[C@@H](CCC(=O)O)C(=O)O ... 7.70

* * *

- Test system: Bacillus subtilis
- measurement description: Activity at beta-galactosidase in Bacillus subtilis relative to ComXRO-E-2
- Design: concentration or dose not given beside the values
*1 amine or outer side, *2 acyl side, *3 side chain or, on linkers, in order; H or OH if unused. Where a SMILES comes first, the peptide text is derived from it. [ ]: non-standard residue; d: D form. X1 = CC(C)=CCC/C(C)=C\C[C@@]12c3ccccc3N[C@@H]1N([*:1])C[C@@H]2C(=O)[*:2]
assay readout: Activity

CC[C@H](C)[C@H](N)C(=O)N[C@@H](Cc1ccccc1)C(=O)N1C[C@H](C(=O)N[C@@H](CCC(=O)O)C(=O)O)[C@]2(C/C=C(/C)CCC=C(C)C)c3ccccc3N[C@H]12 ... 80%
CC[C@H](C)[C@H](NC(=O)CN)C(=O)N[C@@H](Cc1ccccc1)C(=O)N1C[C@H](C(=O)N[C@@H](C)C(=O)N[C@@H](CCC(N)=O)C(=O)O)[C@]2(C/C=C(/C)CCC=C(C)C)c3ccccc3N[C@H]12 (H-GIF[X1]AQ-OH) ... 100%
CC[C@H](C)[C@H](NC(=O)CN)C(=O)N[C@@H](Cc1ccccc1)C(=O)N1C[C@H](C(=O)N[C@@H](CCC(=O)O)C(=O)N[C@@H](C)C(=O)O)[C@]2(C/C=C(/C)CCC=C(C)C)c3ccccc3N[C@H]12 (H-GIF[X1]EA-OH) ... 95%
CC(C)=CCC/C(C)=C\C[C@@]12c3ccccc3N[C@@H]1N(C(=O)[C@H](Cc1ccccc1)NC(=O)[C@H](C)NC(=O)CN)C[C@@H]2C(=O)N[C@@H](CCC(=O)O)C(=O)N[C@@H](CCC(N)=O)C(=O)O (H-GAF[X1]EQ-OH) ... 95%
CC(C)=CCC/C(C)=C\C[C@@]12c3ccccc3N[C@@H]1N(C(=O)[C@@H](N)Cc1ccccc1)C[C@@H]2C(=O)N[C@@H](CCC(=O)O)C(=O)O ... 60%
CC[C@H](C)[C@H](NC(=O)CN)C(=O)N[C@@H](Cc1ccccc1)C(=O)N1C[C@H](C(=O)O)[C@]2(C/C=C(/C)CCC=C(C)C)c3ccccc3N[C@H]12 ... 60%
CC[C@H](C)[C@H](NC(=O)CN)C(=O)N[C@@H](Cc1ccccc1)C(=O)N1C[C@H](C(=O)N[C@@H](CCC(=O)O)C(=O)N[C@@H](CCC(N)=O)C(=O)O)[C@]2(C/C=C(/C)CCC=C(C)C)c3ccccc3N[C@H]12 (H-GIF[X1]EQ-OH) ... 100%
CC(C)=CCC/C(C)=C\C[C@@]12c3ccccc3N[C@@H]1N(C(=O)[C@@H](N)Cc1ccccc1)C[C@@H]2C(=O)N[C@@H](CCC(=O)O)C(=O)N[C@@H](CCC(N)=O)C(=O)O ... 70%
CC[C@H](C)[C@H](NC(=O)CNC(=O)[C@H](C)N)C(=O)N[C@@H](Cc1ccccc1)C(=O)N1C[C@H](C(=O)N[C@@H](CCC(=O)O)C(=O)N[C@@H](CCC(N)=O)C(=O)O)[C@]2(C/C=C(/C)CCC=C(C)C)c3ccccc3N[C@H]12 (H-AGIF[X1]EQ-OH) ... 100%
CC[C@H](C)[C@H](N)C(=O)N[C@@H](Cc1ccccc1)C(=O)N1C[C@H](C(=O)O)[C@]2(C/C=C(/C)CCC=C(C)C)c3ccccc3N[C@H]12 ... 55%
CC(C)=CCC/C(C)=C\C[C@@]12c3ccccc3N[C@@H]1NC[C@@H]2C(=O)N[C@@H](CCC(=O)O)C(=O)N[C@@H](CCC(N)=O)C(=O)O ... 15%

* * *

Measured Activity of individual entries
- Tested on: Bacillus subtilis
- measurement description: Activity at beta-galactosidase in Bacillus subtilis relative to ComXRO-E-2
- Set-up: concentration or dose not given beside the values
*1 amine or outer side, *2 acyl side, *3 side chain or, on linkers, in order; H or OH if unused. Where a SMILES comes first, the peptide text is derived from it. [ ]: non-standard residue; d: D form. X1 = CC(C)=CCC/C(C)=C\C[C@@]12c3ccccc3N[C@@H]1N([*:1])C[C@@H]2C(=O)[*:2]
assay readout: Activity (%)

CC[C@H](C)[C@H](NC(=O)CN)C(=O)N[C@@H](Cc1ccccc1)C(=O)N1C[C@H](C(=O)N[C@@H](CCC(=O)O)C(=O)O)[C@]2(C/C=C(/C)CCC=C(C)C)c3ccccc3N[C@H]12 (H-GIF[X1]E-OH) ... 80
CC[C@H](C)[C@H](NC(=O)CN)C(=O)N[C@@H](C)C(=O)N1C[C@H](C(=O)N[C@@H](CCC(=O)O)C(=O)N[C@@H](CCC(N)=O)C(=O)O)[C@]2(C/C=C(/C)CCC=C(C)C)c3ccccc3N[C@H]12 (H-GIA[X1]EQ-OH) ... 90
CC[C@H](C)[C@H](N)C(=O)N[C@@H](Cc1ccccc1)C(=O)N1C[C@H](C(=O)N[C@@H](CCC(=O)O)C(=O)N[C@@H](CCC(N)=O)C(=O)O)[C@]2(C/C=C(/C)CCC=C(C)C)c3ccccc3N[C@H]12 (H-IF[X1]EQ-OH) ... 100
CC[C@H](C)[C@H](NC(=O)[C@@H](C)N)C(=O)N[C@@H](Cc1ccccc1)C(=O)N1C[C@H](C(=O)N[C@@H](CCC(=O)O)C(=O)N[C@@H](CCC(N)=O)C(=O)O)[C@]2(C/C=C(/C)CCC=C(C)C)c3ccccc3N[C@H]12 ... 100

FYI, the data here is from ChEMBL document CHEMBL1139111.
